Target Under Test: Fuc(a1-2)[GalNAc(a1-3)]Gal(b1-4)GlcNAc(b1-2)Man(a1-3)[Fuc(a1-2)[GalNAc(a1-3)]Gal(b1-4)GlcNAc(b1-2)Man(a1-6)]Man(b1-4)GlcNAc(b1-4)[Fuc(a1-6)]GlcNAc
Measurement Protocol: glycan array binding signal (z-score within array); higher = stronger binding
Particulars: glycan notation: IUPAC condensed, linker removed
Only a selection was taken, and the strongest signals are over-represented in it overall.
The entries below are paired with their reported glycan array binding signal (z-score).

Past entries and their recorded results:
Clrb (Mus musculus) (protein) ITGATKTEQIPVNKTYAACPQNWIGVENKCFYFSEYPSNWTFAQAFCMAQEAQLARFDNQDELNFLMRYKANFDSWIGLHRESSEHPWKWTDNTEYNNTIPIRGEERFAYLNNNGISSTRIYSLRMWICSKLNSYSLHCQTPFFPSGTKHHHHHHHHG: -0.417
Si Bti9 1b-V5-his (Solanum lycopersicum) (protein) MQCNRGCDLALASFYVWRGSNLTLISEMFSTSIADIVSYNNRDNIPNQDSVIAGTRINIPFRCDCLNDGEVLGHAFPYRVKSGDTYDLVARNYSDLTTAQWMMKFNSYPENNIPNTVNLSVVVNCSCGNSDVSKDFGLFVTYPVRAEDNLTSVASAANVSEDIIRRYNPAAVSILDIGQGIIYIPGRDRNGNFPPLPTSTDGLSGGAKKGGRADPAFLYKVVINSKLEGKPIPNPLLGLDSTRTGHHHHHH: 0.032
CpGal16 (Clavelina picta) (protein) MAKMITNYVGKRIECIMVATDMMSTVFSLASATGDLPFYINFRQRENSIVMNTRVHGKWQYEKSQSSGGMNFYEPFRLVVEVRPSVFKVTVSTMGEEDGITFNLQYSQITIKPDEIVAMHLGYCNLRSELLVTDL: 0.044
CGL (Crenomytilus grayanus), H2FH31 (protein) MTTFLIKHKASGKFLHPYGGSSNPANNTKLVLHSDIHERMYFQFDVVDERWGYIKHVASGKIVHPYGGQANPPNETNMVLHQDRHDRALFAMDFFNDNIMHKGGKYIHPKGGSPNPPNNTETVIHGDKHAAMEFIFVSPKNKDKRVLVYA: -0.23
SP15308B-bot-339-22-339 (Bacteroides ovatus) (protein) NEWEDEQYEQYVSFKAPIASGSDGVTTIYVRYKDNGKVTYQLPIIVSGSTVNSQDRDIHIAVDKDTLKTLNIERFSLYRPELWYTEMEEDKYEFPETVHIPAGSCVELLNIDFNLQDIDMLEKWVLPLTIVDDGSYAYQSHPRKNYAKALLKVVPFNNYSGSYTASSMKVYTYINGKPDTNARTTDKRTGYVVDNNSIFFYAGLINEDMDKDMRKKYKINVHFKEDGTLDMKQDDPSNEMEFELIGTPTYSSTSVMDATRPYLERRYVQIMFEYDFQDFTYGGSGTEVIPIKYRVAGSMTLLRNINTQIPDEDQQIEW: -0.388

Then this binder:
Look up glycan array binding signal (z-score) for this binder: TIM1 (protein) ADGIQSVKVGGEAGPSVTLPCHYSGAVTSMCWNRGSCSLFTCQNGIVWTNGTHVTYRKDTRYKLLGDLSRRDVSLTIENTAVSDSGVYCCRVEHRGWFNDMKITVSLEIVPPHHHHHH -0.187
